FYI, the data here is from PubChem BioAssay AID248.

Test system: L1210 leukemia ip in BDF1 mice, survival T/C
Test: NCI In Vivo Anticancer Drug Screen. Data for tumor model L1210 Leukemia (intraperitoneal) in B6D2F1 (BDF1) mice
Conditions: endpoint: mean survival time; dose: 75.0 mg/kg/injection; schedule: Q04DX003 (ip); vehicle: saline; higher = longer survival
Toxic doses and inconclusive results are not listed.
quantityName: T/C

{"molecule": "Cc1c2cnccc2c(C)c2c1c1ccccc1n2C(C)C", "result": "101 % of control"}
{"molecule": "Nc1ncnc2c1ncn2C1CC(COP(=O)(O)O)C(O)C1O (stereo not given)", "result": "110 % of control"}
{"molecule": "Cc1ccc(S(=O)(=O)NC(CO)C(=O)O)cc1 (stereo not given)", "result": "102 % of control"}
{"molecule": "CN(CCSSCCN(C)C(N)=S)C(N)=S", "result": "96 % of control"}
{"molecule": "CC1CCC(C(C)C)/C(=N/S)C1 (stereo not given)", "result": "93 % of control"}
